Molecular target: endogenous ΔF508-CFTR (Homo sapiens, UniProt P13569, DEL508-508)
Construct: expressing low amounts of endogenous ΔF508-CFTR; endogenous in cells; host or cells: CF-KM4 (SV40-transformed CF tracheal gland serous cells, homozygous ΔF508)
Sequence (P13569 with tags, fused parts or gaps DEL508-508): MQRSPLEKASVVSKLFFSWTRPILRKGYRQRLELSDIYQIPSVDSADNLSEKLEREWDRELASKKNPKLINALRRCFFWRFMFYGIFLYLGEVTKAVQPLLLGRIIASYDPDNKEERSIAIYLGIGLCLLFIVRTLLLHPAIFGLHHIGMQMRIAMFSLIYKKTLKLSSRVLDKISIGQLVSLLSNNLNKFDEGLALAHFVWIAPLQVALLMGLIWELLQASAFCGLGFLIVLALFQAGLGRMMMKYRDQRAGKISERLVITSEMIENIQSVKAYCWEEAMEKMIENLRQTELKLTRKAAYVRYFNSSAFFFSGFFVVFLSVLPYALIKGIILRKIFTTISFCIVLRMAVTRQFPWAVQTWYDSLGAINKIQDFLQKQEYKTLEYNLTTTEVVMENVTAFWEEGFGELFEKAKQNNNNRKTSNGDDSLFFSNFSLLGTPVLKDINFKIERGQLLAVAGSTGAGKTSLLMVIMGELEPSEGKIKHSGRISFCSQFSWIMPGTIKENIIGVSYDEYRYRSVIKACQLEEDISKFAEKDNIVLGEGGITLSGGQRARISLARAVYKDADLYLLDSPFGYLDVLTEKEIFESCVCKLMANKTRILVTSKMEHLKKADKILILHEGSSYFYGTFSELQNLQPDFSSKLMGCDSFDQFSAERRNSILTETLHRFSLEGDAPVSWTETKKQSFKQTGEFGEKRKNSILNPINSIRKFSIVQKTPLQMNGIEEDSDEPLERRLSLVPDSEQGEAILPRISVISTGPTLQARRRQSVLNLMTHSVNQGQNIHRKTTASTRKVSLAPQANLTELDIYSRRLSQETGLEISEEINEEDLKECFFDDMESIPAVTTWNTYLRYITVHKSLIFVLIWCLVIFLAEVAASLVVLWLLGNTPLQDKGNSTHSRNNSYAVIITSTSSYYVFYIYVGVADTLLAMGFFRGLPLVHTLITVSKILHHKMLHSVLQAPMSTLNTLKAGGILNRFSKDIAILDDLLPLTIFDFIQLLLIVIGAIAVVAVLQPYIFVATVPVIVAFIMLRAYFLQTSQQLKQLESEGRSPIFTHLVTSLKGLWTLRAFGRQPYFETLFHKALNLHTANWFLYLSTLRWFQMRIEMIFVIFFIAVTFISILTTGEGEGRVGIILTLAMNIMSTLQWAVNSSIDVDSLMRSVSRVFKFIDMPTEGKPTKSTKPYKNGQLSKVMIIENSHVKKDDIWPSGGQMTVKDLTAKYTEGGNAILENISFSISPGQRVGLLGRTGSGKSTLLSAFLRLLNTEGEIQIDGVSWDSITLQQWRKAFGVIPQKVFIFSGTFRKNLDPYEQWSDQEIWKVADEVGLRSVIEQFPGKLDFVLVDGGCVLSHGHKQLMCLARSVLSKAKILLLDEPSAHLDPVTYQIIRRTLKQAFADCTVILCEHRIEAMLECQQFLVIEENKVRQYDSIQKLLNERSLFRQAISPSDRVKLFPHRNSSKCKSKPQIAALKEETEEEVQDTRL
Experiment: CFTR-dependent iodide efflux in CF-KM4 epithelial serous cell line
Format: cell-based
Conditions: CF-KM4 cells, 1 μM

Item Smiles: O=C(O)c1ccc(C(=O)O)c(C(=O)Nc2ccc3c(c2)Cc2ccccc2-3)c1
cAMP-dependent iodide efflux: not active

Item Smiles: COc1ccc2nc3cc(Cl)ccc3c(Nc3ccc(O)c(CN4CCN(C)CC4)c3)c2c1
cAMP-dependent iodide efflux: not active
